Reported kon values for a set of binders
- study_system: T1, human IL-25 expressed with a C-terminal myc-myc-hexahistidine tag (human)
- T1 construct: also called human IL-25-MMH; hIL-25-MMH
- T1 chain: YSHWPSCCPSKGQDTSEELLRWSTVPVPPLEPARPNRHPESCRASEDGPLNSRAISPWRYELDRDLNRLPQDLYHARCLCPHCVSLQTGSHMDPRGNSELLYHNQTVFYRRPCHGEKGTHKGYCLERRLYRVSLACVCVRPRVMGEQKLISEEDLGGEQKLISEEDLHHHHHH
- experiment: SPR Biacore, captured mAb, 25°C;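 note: biacore 4000 SPR with IL-25-MMH as analyte over purified anti-IL-25 antibodies, association and dissociation rates derived from fitting sensorgrams to a 1:1 binding model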

# binder, measured_parameter, meas_value
records = [
    ("H4H10901P (antibody, human IgG4, V domains shown) VH: QLQLQESGPGLVRPSETLSLTCSVSSGSIRSSNYYWGWIRQPPGKGLEWIGNIYYSGNTFYNPSLKGRVTISVDTSKNQFSLKLSSVTATDTAVYYCARQGYSDYELNWFDPWGQGTLVTVSS VL: DIVMTQSPDSLVLSLGERATFNCKSSQSVLDSSNNKNYLAWYQQKPGQPPKLLIYWASTRESGVPDRFSGSGSGTDFSLTISSLQAEDVALYYCQQFYNSPWTFGQGTKVEIK", "kon", "2.28e+06 M⁻¹ s⁻¹"),
    ("H4H10907P (antibody, human IgG4, V domains shown) VH: EVQLVESGGGLVQPGGSLRLSCAASGFTFSNYDIHWVRQVPGKGLEWISTIGSAGDTFYPGSVKGRFTISRENAKNSLYLQMNSLRAGDSAVYYCARGDNWNYVSWFFDLWGRGTLVTVSS VL: DIQLTQSPSFLSTSVGDRVTITCWASQDISSFLAWYQQKPGKAPKLLIYAASVLQSGVPSRFSGSGSGTEFTLTISSLQPEDFATYYCQQVNSYPITFGQGTRLEIK", "kon", "736000 M⁻¹ s⁻¹"),
    ("H4H10883P (antibody, human IgG4, V domains shown) VH: QVQLQESGPGLVKSSETLSLTCTVSGGSISSYYWSWIRQPPGKGLEWIGFIYYSGSTNYNPSLKSRVTFSVDTSKNHFSLKLNSVTATDTAVYYCARHYFDSGTYELGPFDYWGQGTLVTVSS VL: DIVMTQSPDSLAVSLGERATINCKSSQNILLTSSNKNYLTWYQQKPGQPPKLLIYWASIRESGVPDRFSGSGSGTDFTLTISSLQAEDVALYFCQQYYITPFTFGPGTKVDIK", "kon", "706000 M⁻¹ s⁻¹"),
    ("H4H10861P (antibody, human IgG4, V domains shown) VH: QVQLQESGPGLVKPSETLSLTCTVSGASISNYYWSWIRQPPGKGLEWIGYIFYSGNTNYNPSLKSRVTISVDTSKNQFSLKLSSVTAADTAVYYCARVRFSDYELNWFDPWGQGTLVTVSS VL: DIVMTQSPDSLAVFLGERATINCRSSQSVFLGSNNKNYLAWYQQKPGQPPKLLIYWASSRESGVPDRFSGSGSGTDFTLTINSLQAEDVAVYYCQQYFITPLTFGGGTKVEIK", "kon", "2.01e+06 M⁻¹ s⁻¹"),
    ("H4H10863P (antibody, human IgG4, V domains shown) VH: QVQLVQSGAEVKKPGASVKVSCKASGYTFSSYGISWVRQAPGQGLEWMGWISAYNDNTQYAQKFQGRVTMTTDTSTSTAYMELRSLRSDDTAVYYCARVPLQWFGESFDHWGQGTLVTVSS VL: DIQMTQSPSSLSASVGDRVTITCRASQDINNYLNWFQQKPGKAPKLLIFSTSSLQSGVPSRFSGSGSGTDFTLTISSLQSEDFATYYCQQTFITPLTFGGGTKVEIK", "kon", "260000 M⁻¹ s⁻¹"),
]

Please supply the value of reported kon for the item H4H10876P (antibody, human IgG4, V domains shown) VH: QVQLVQSGAEVKKPGASVKVSCKASEYTFSNYGISWVRQAPGQGLEWLGWIGAYSGFTKYAQKVQDRITMTTDASTTTAYMELRNLRSDDTAVYYCARVGTGTDSYFDFWGQGTLVTVSS VL: DIQMTQSPSSLSASVGDRVTITCRASQNINSHLNWYQQKPGKAPKLLIYTASSLQSGVPLRFSGSGSGTDFTLTISSLQPEDFGIYICQQTYITPLTFGGGTKVEIK 386000 M⁻¹ s⁻¹

For the binder H4H10897P (antibody, human IgG4, V domains shown) VH: QVQLQESGPGLVKPSETLSLTCTVSGGSISDYYWSWIRQPPGKGLEWIGHIYYSGSTNHNPSLKSRVAISVDTSKNQFSLRLYSVTAADTAVYYCARDGYSSSSGFYYFGMDVWGQGTTVTVSS VL: DIQLTQSPSFLSASVGDRVTITCWASQDINSYLAWYQQKPGKAPKLLIFAASTLQGGVPSRFSGSGSGTEFTLTISSLQPEDFATYYCQHLSSFPPTFGQGTRLEIK , report kon. 623000 M⁻¹ s⁻¹

Give the reported kon for this binder. H4H10871P (antibody, human IgG4, V domains shown) VH: QVQLVQSGAEVMKPGASVKVSCKSSDFAFTTYGISWVRQAPGQGLEWMGWISAYNGNTNYEQRFQGRITMTTDTSTTTVYMELRSLRSDDTAVYYCARDPDYCSSNTCSDAFDLWGQGTMVTVSS VL: DIQMTQSPSSLSASVRDRVTITCRASQGITNYLAWYQQKPGKVPKVLIYAASTLQSGVPSRFSGSGSGTEFTLAISSLQPEDVATYFCQQYGSAPWTFGQGTKVEIK 749000 M⁻¹ s⁻¹

Return the recorded kon value; entry: H4H10905P (antibody, human IgG4, V domains shown) VH: QVQLVQSGAEVKKPGTSVKVSCKASGYTFTNYGISWVRQAPGQGLEWLGWISAYNDNTDYAQKLQARVTMTTDTFTSTAYMDLRSLRSDDTAVYYCARVPITGTTSSFDFWGQGTLVTVSS VL: DIQMTQSPSSLSASVGDRVTISCRASQTIYSYLNWFQQKPGKAPKLLIYDASSLQSGVPSRFSGSGSGTHFTLTISSLQPEDFATYFCQQTYSTPLTFGGGTKVEIK 478000 M⁻¹ s⁻¹
